- MEASUREMENT_NOTES: Pharmacokinetics in SD rats after single IV and PO administration, plasma
- Format: in vivo
- CONDITION_SUMMARY: Sprague-Dawley (SD); rat plasma; PO 6 mg/kg; read-out: MRT(0−∞)
READOUT_TYPE: MRT inf (h)
Only the number, expressed in h, is required.

State its MRT inf for this compound: `O=C(O)[C@@H]1C[C@H]1c1ccc(Cn2cnc(F)c2)cc1F`
4.25

State its MRT inf for this compound: O=C(O)/C=C/c1ccc(Cn2ccnc2)cc1 [Ozagrel, reference compound]
0.63

State its MRT inf for this compound: `O=C(O)[C@@H]1C[C@H]1c1ccc(Cn2ccnc2)cc1`
1.2

State its MRT inf for this compound: `O=C(O)[C@@H]1C[C@H]1c1ccc(Cn2cnc(F)c2)c(Cl)c1`
16.1

State its MRT inf for this compound: `O=C(O)[C@@H]1C[C@H]1c1ccc(Cn2ccnc2)c(F)c1`
2.79

State its MRT inf for this compound: `O=C(O)[C@@H]1C[C@H]1c1ccc(Cn2cnc(Cl)c2)c(Cl)c1`
54.4
